Values from patent US20250027068A1

assayedSystem: pooled human IgG (human IgG1, 2, 3 and 4) (human); further: test concentration or dose not given here
methodDescription: cell-based or functional assay
assayMetric: Enzyme Activity Endpoint Assay: Fab′2 (ng/µL)
I only need the number, in ng/µL, no unit after it.

Req: Using known records, supply Enzyme Activity Endpoint Assay: Fab′2 for PRT-394 (enzyme) MVTSVWTKGVTPPTNFTYGEDVLHAPYVANQGWYDITKTFNGKDDLLCGAATAGNMLHWWFDQNKEQIENYLKKHPEKQKINFNGEQMFDVKEAIDTKDSQLDSKLFEYFKEKAFPYLSTKHLGVFPDHVIDMFINGYRLSLTNHGPTPVKRGSKDPRGGIFDAVFTRGDQSKLLTNRHDFKEKTLKEISDLIKQELTEGKALGISHTYANVRINHVINLWGADFDAEGNLEAIYVTDSDSEASIGMKKYFVGVNSNGKVAISAKEIEEDNIGAQVLGLFTLSTGQDIWNQTN
Resp: 482
